- measured on: 11β-HSD1 (Homo sapiens)
- assay remarks: Biological Test Example 4: microsomal 11β-HSD1 in the presence of 50% human plasma
readout label: IC50 (nM)
# output: bare number, implied unit nM

These solved cases illustrate the format of a correct answer.
Query: What does the record list as IC50 for `Cc1cn(-c2ncc(-c3ccc([C@H](C)N4CC[C@](CC(C)(C)O)(c5ccccc5)OC4=O)cc3)cn2)c(C)n1` ?
Result: 6.8

Query: And for `C[C@@H](c1ccc(-c2cnc(C(=O)NC3CC3)nc2)cc1)N1CC[C@](CC(C)(C)C#N)(c2ccccc2)OC1=O` ?
Result: 5.5

Query: Also `C=CC[C@]1(c2ccc(F)cc2)CCN([C@@H](C)c2ccc(-n3ccc(C(F)(F)F)n3)cc2)C(=O)O1` , if possible.
Result: 315

Query: Try `Cc1cc(-c2ccc([C@H](C)N3CC[C@](CCC(N)=O)(c4ccccc4)OC3=O)cc2)ccn1` next.
Result: 6.3

Query: Follow-up entry: `C[C@@H](c1ccc(-c2ccccn2)cc1)N1CC[C@](CCC(N)=O)(c2ccc(F)cc2)OC1=O`
Result: 20.8

Query: Next: `C[C@@H](c1ccc(-c2ncc(C(=O)N(C)C)s2)cc1)N1CC[C@](CC(C)(C)O)(c2ccccc2)OC1=O`
Result: 12.9

Query: What would you report for `CC[C@@H](c1ccc(-c2cc(C)[n+]([O-])c(C)c2)cc1)N1CC[C@](CC(C)(C)O)(c2ccccc2)OC1=O` ?
Result: 13.2

Query: Okay, and `C[C@@H](c1ccc(-c2ncc(C(=O)NC(C)(C)C)s2)cc1)N1CC[C@](CC(C)(C)O)(c2ccccc2)OC1=O` ?
Result: 13.7

Others:
Query: Value lookup for IC50; key = `C[C@@H](c1ccc(-c2cnccn2)cc1)N1CC[C@](CC(C)(C)O)(c2ccccc2)OC1=O`
Result: 21.6

Query: Try `C[C@@H](c1ccc(-c2cc[nH]n2)cc1)N1CC[C@](CCCO)(c2ccccc2)OC1=O` next.
Result: 13.5

Query: // query: `C[C@@H](c1ccc(-c2ccccn2)cc1)N1CC[C@](CCCO)(c2ccc(F)cc2)OC1=O`
Result: 5.1

Query: And for `C[C@@H](c1ccc(-c2ccc(C(=O)NC(C)(C)C)nn2)cc1)N1CC[C@](CC(C)(C)C#N)(c2ccccc2)OC1=O` ?
Result: 5.1

Query: Subsequent entry: `Cc1ccc(-c2ccc([C@H](C)N3CC[C@](CCCO)(c4ccc(F)cc4)OC3=O)cc2)c(C)n1`
Result: 6.6

Query: And then `Cc1nccn1-c1ncc(-c2ccc([C@H](C)N3CC[C@](CC(C)(C)O)(c4ccccc4)OC3=O)cc2)cn1` , what is it?
Result: 4.7

Query: # iterate: `C[C@@H](c1ccc(-c2ccncn2)cc1)N1CC[C@](CCCO)(c2ccc(F)cc2)OC1=O`
Result: 8.5

Query: # repeat for `C[C@@H](c1ccc(-c2nccs2)cc1)N1CC[C@](CCCO)(c2ccc(F)cc2)OC1=O`
Result: 25.2

Query: Quick one: `COc1cncc(-c2ccc([C@H](C)N3CC[C@](CCCO)(c4ccc(F)cc4)OC3=O)cc2)c1`
Result: 18.5

Query: // query: `C[C@@H](c1ccc(-c2ccncn2)cc1)N1CC[C@](CC(C)(C)O)(c2ccccc2)OC1=O`
Result: 5.1

Query: Now the compound `Cc1ccc(-c2ccc([C@H](C)N3CC[C@](CCCO)(c4ccc(F)cc4)OC3=O)cc2)nn1`
Result: 3.9

Query: One more compound: `C[C@@H](c1ccc(-c2ccc(C(F)(F)F)nc2)cc1)N1CC[C@](CCCO)(c2ccc(F)cc2)OC1=O`
Result: 4.2

Query: Then `C[C@@H](c1ccc(-c2ccc(C(=O)NC(C)(C)C)cn2)cc1)N1CC[C@](CC(C)(C)O)(c2ccccc2)OC1=O` ?
Result: 5.9

Query: Item: `COc1ccc(-c2ccc([C@H](C)N3CC[C@](CCCO)(c4ccc(F)cc4)OC3=O)cc2)cn1`
Result: 3.8

Query: Same again, this time with `C[C@@H](c1ccc(-c2cnccn2)cc1)N1CC[C@](CCCO)(c2ccc(F)cc2)OC1=O`
Result: 7.1

Query: Could you do the same for `C[C@@H](c1ccc(-c2cncc(C#N)n2)cc1)N1CC[C@](CC(C)(C)O)(c2ccc(F)cc2)OC1=O` , please?
Result: 27.4

Query: Try this compound next: `C[C@@H](c1ccc(-c2ncc(C(=O)NC3CC3)s2)cc1)N1CC[C@](CC(C)(C)C#N)(c2ccccc2)OC1=O`
Result: 3.4

* * *

- measured on: 11β-HSD1 (Homo sapiens, UniProt P28845)
- Sequence (P28845 whole entry): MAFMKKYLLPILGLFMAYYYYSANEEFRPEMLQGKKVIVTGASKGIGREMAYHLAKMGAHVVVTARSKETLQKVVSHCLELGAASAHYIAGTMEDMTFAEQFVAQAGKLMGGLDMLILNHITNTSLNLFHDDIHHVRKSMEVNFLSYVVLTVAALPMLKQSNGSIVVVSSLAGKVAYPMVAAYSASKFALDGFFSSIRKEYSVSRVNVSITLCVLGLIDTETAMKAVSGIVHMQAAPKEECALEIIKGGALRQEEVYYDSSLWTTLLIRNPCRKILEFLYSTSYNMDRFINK
- assay remarks: Biological Test Example 4: microsomal 11β-HSD1 in the presence of 50% human plasma
IC50 strictly less than 10 nM = 1 (yes). Otherwise 0 (no).

Query: Report whether reported IC50 is lower than 10 nM (strictly) for Cc1cc(-c2ccc([C@H](C)N3CC[C@](C)(c4ccc(F)cc4)OC3=O)cc2)ccn1 (single isomer, unassigned)
Result: 0 (no)

Query: Follow-up item: `C=CC[C@]1(c2ccc(F)cc2)CCN([C@@H](C)c2ccc(-c3cncc(F)c3)cc2)C(=O)O1`
Result: 0 (no)

Query: Next compound: `C[C@@H](c1ccc(-c2cnc(C(=O)NC3CC3)nc2)cc1)N1CC[C@](CC(C)(C)O)(c2ccccc2)OC1=O`
Result: 1 (yes)

Query: // repeat for `C[C@@H](c1ccc(-c2ccc(C(=O)NC3CC3)cn2)cc1)N1CC[C@](CC(C)(C)C#N)(c2ccccc2)OC1=O` and report
Result: 1 (yes)

Query: Same lookup for `Cc1cc(-c2ccc([C@H](C)N3CC[C@](CCN(C)S(C)(=O)=O)(c4ccccc4)OC3=O)cc2)ccn1` , please.
Result: 0 (no)

Query: Input `C[C@@H](c1ccc(-c2cccc(OC3CCCC3)n2)cc1)N1CC[C@](CC(C)(C)O)(c2ccccc2)OC1=O`
Result: 0 (no)

Query: Next record, please: `COc1ccc(-c2ccc([C@H](C)N3CC[C@](CCC(N)=O)(c4ccccc4)OC3=O)cc2)cn1`
Result: 0 (no)

* * *

- measured on: 11β-HSD1 (Homo sapiens, UniProt P28845)
- assay remarks: Biological Test Example 4: microsomal 11β-HSD1 in the presence of 50% human plasma
Measured IC50 by item
Report the value in nM with no unit label.

Known results for molecules:
Query: // fetch 11β-HSD1 (Homo sapiens, UniProt P28845) IC50 for `C[C@@H](c1ccc(-c2cncc(C(N)=O)n2)cc1)N1CC[C@](CC(C)(C)O)(c2ccc(F)cc2)OC1=O`
Result: 7.3

Query: Consider next the molecule `Cc1nc(C)c(-c2ccc([C@H](C)N3CC[C@](CCCO)(c4ccc(F)cc4)OC3=O)cc2)s1` in the same way.
Result: 8.8

We next turn to a different molecule, shown below.
Query: Form entry - test system: 11β-HSD1 (Homo sapiens, UniProt P28845); read-out: IC50; molecule: `Cc1nc(C)c(-c2ccc([C@H](C)N3CC[C@](CCC(N)=O)(c4ccc(F)cc4)OC3=O)cc2)s1`
Result: 12.4

* * *

- measured on: 11β-HSD1 (Homo sapiens, UniProt P28845)
- assay remarks: biochemical
- test conditions: Biological Test Example 1 IC50 (nM)
API: label(entry) gives yes if the entry's IC50 is strictly smaller than 1 nM; on equality or larger values it gives no.

Query: Please indicate whether the reported IC50 of `C[C@@H](c1ccc(-c2cnc(-n3ccnc3)nc2)cc1)N1CC[C@](CC(C)(C)O)(c2ccccc2)OC1=O` is strictly below 1 nM.
Result: yes

Query: Likewise for `C[C@@H](c1ccc(-c2cncc(C(=O)N(C)C)c2)cc1)N1CC[C@](CCCO)(c2ccc(F)cc2)OC1=O` ?
Result: no

Query: Also check `C[C@@H](c1ccc(-c2cccnc2)cc1)N1CC[C@](CCCO)(c2ccc(F)cc2)OC1=O`
Result: no

Query: Moving on to the next compound: `Cc1cc(-c2ccc([C@H](C)N3CC[C@](CCNS(C)(=O)=O)(c4ccccc4)OC3=O)cc2)ccn1`
Result: no

Query: Okay, and `C[C@@H](c1ccc(-c2ccc(C(=O)NC3CC3)cn2)cc1)N1CC[C@](CC(C)(C)O)(c2ccccc2)OC1=O` ?
Result: no

Others:
Query: Is the reported IC50 for `Cc1ccc(-c2ccc([C@H](C)N3CC[C@](CC(C)(C)O)(c4ccc(F)cc4)OC3=O)cc2)nn1` strictly below 1 nM?
Result: no

Query: Please give the result for `COc1ccc(-c2ccc([C@H](C)N3CC[C@](CCO)(c4ccccc4)OC3=O)cc2)cn1` too.
Result: yes

Query: // query: `C[C@@H](c1ccc(-c2ncc(C(=O)NC(C)(C)C)s2)cc1)N1CC[C@](CC(C)(C)C#N)(c2ccccc2)OC1=O`
Result: yes

Query: // repeat for `CC[C@@H](c1ccc(-c2cc(C)[n+]([O-])c(C)c2)cc1)N1CC[C@](CC(C)(C)O)(c2ccccc2)OC1=O` and report
Result: no

Query: Param item: `C[C@@H](c1ccc(-c2ccccn2)cc1)N1CC[C@](CCC(N)=O)(c2ccc(F)cc2)OC1=O`
Result: no

The measurements presented in this section are drawn from patent US8569292B2.
